From: the NIST ThermoML archive (doi:10.1021/je2002368)

conditions: 333.15 K; 101.33 kPa; Liquid; Vibrating tube method
QUANTITY NAME: mass density (kg/m3)

> print(dat)
                                   compound  reported
1  CCn1cc[n+](C)c1.NCC(=O)[O-] [1-ethyl-3-methylimidazolium ammonioacetate]    1132.7
2  CCn1cc[n+](C)c1.O=C([O-])[C@@H]1CCCN1 [1-ethyl-3-methyl-1H-imidazolium L-prolinate]   1133.22
3  CC[n+]1ccn(C)c1.N[C@@H](CO)C(=O)[O-] [3-ethyl-1-methyl-1H-imidazolium L-serinate]    1172.6
4  CCn1cc[n+](C)c1.C[C@H](N)C(=O)[O-] [1-ethyl-3-methylimidazolium L-alaninate]      1114

---

details: 328.15 K; 101.33 kPa; Liquid; Vibrating tube method
QUANTITY NAME: mass density (kg/m3)

> print(dat)
                                   compound  quantity.name  reported
1  CCn1cc[n+](C)c1.O=C([O-])[C@@H]1CCCN1 [1-ethyl-3-methyl-1H-imidazolium L-prolinate]   mass density   1136.36
2  CCn1cc[n+](C)c1.C[C@H](N)C(=O)[O-] [1-ethyl-3-methylimidazolium L-alaninate]   mass density    1117.2
3  CC[n+]1ccn(C)c1.N[C@@H](CO)C(=O)[O-] [3-ethyl-1-methyl-1H-imidazolium L-serinate]   mass density    1175.8
4  CCn1cc[n+](C)c1.NCC(=O)[O-] [1-ethyl-3-methylimidazolium ammonioacetate]   mass density    1135.8

---

details: 348.15 K; 101.33 kPa; Liquid; Concentric cylinders viscometry
QUANTITY NAME: viscosity (mPa·s)

> print(dat)
                                   compound  quantity.name  scale.unit  reported
1  CCn1cc[n+](C)c1.O=C([O-])[C@@H]1CCCN1 [1-ethyl-3-methyl-1H-imidazolium L-prolinate]      viscosity       mPa·s     29.36

1 = CCn1cc[n+](C)c1.C[C@H](N)C(=O)[O-] [1-ethyl-3-methylimidazolium L-alaninate]
2 = CCn1cc[n+](C)c1.NCC(=O)[O-] [1-ethyl-3-methylimidazolium ammonioacetate]
3 = CC[n+]1ccn(C)c1.N[C@@H](CO)C(=O)[O-] [3-ethyl-1-methyl-1H-imidazolium L-serinate]
Query: List by increasing viscosity. Put the labels in the order asked and list them.
Reply: 2, 1, 3
(2: 9.55 mPa·s, 1: 18.05 mPa·s, 3: 26.82 mPa·s)

---

conditions: 338.15 K; 101.33 kPa; Liquid; Vibrating tube method
QUANTITY NAME: mass density (kg/m3)

> print(dat)
                                   molecule  scale.unit  reported
1  CCn1cc[n+](C)c1.O=C([O-])[C@@H]1CCCN1 [1-ethyl-3-methyl-1H-imidazolium L-prolinate]       kg/m3   1130.08
2  CCn1cc[n+](C)c1.C[C@H](N)C(=O)[O-] [1-ethyl-3-methylimidazolium L-alaninate]       kg/m3    1110.9
3  CCn1cc[n+](C)c1.NCC(=O)[O-] [1-ethyl-3-methylimidazolium ammonioacetate]       kg/m3    1129.5
4  CC[n+]1ccn(C)c1.N[C@@H](CO)C(=O)[O-] [3-ethyl-1-methyl-1H-imidazolium L-serinate]       kg/m3    1169.5

---

conditions: 353.15 K; 101.33 kPa; Liquid; Concentric cylinders viscometry
QUANTITY NAME: viscosity (mPa·s)

> print(dat)
                                   compound  reported
1  CCn1cc[n+](C)c1.O=C([O-])[C@@H]1CCCN1 [1-ethyl-3-methyl-1H-imidazolium L-prolinate]      24.5

I = CC[n+]1ccn(C)c1.N[C@@H](CO)C(=O)[O-] [3-ethyl-1-methyl-1H-imidazolium L-serinate]
II = CCn1cc[n+](C)c1.NCC(=O)[O-] [1-ethyl-3-methylimidazolium ammonioacetate]
III = CCn1cc[n+](C)c1.C[C@H](N)C(=O)[O-] [1-ethyl-3-methylimidazolium L-alaninate]
Query: Arrange the 3 compounds from largest to smallest viscosity. Arrange the labels as the request states and list them.
Reply: I, III, II
(I: 22.47 mPa·s, III: 15.51 mPa·s, II: 8.38 mPa·s)

---

test: refractive index (Na D-line) (dimensionless); conditions: 323.15 K; 101.33 kPa; Liquid; Standard Abbe refractometry
QUANTITY NAME: refractive index

> print(dat)
                                   compound  reported
1  CCn1cc[n+](C)c1.C[C@H](N)C(=O)[O-] [1-ethyl-3-methylimidazolium L-alaninate]   1.49568
2  CCn1cc[n+](C)c1.O=C([O-])[C@@H]1CCCN1 [1-ethyl-3-methyl-1H-imidazolium L-prolinate]   1.50621
3  CC[n+]1ccn(C)c1.N[C@@H](CO)C(=O)[O-] [3-ethyl-1-methyl-1H-imidazolium L-serinate]   1.50372
4  CCn1cc[n+](C)c1.NCC(=O)[O-] [1-ethyl-3-methylimidazolium ammonioacetate]   1.49657

---

conditions: 313.15 K; 101.33 kPa; Liquid; Concentric cylinders viscometry
QUANTITY NAME: viscosity (mPa·s)

> print(dat)
                                   compound  quantity.name  reported
1  CCn1cc[n+](C)c1.O=C([O-])[C@@H]1CCCN1 [1-ethyl-3-methyl-1H-imidazolium L-prolinate]      viscosity    153.57

I = CC[n+]1ccn(C)c1.N[C@@H](CO)C(=O)[O-] [3-ethyl-1-methyl-1H-imidazolium L-serinate]
II = CCn1cc[n+](C)c1.NCC(=O)[O-] [1-ethyl-3-methylimidazolium ammonioacetate]
III = CCn1cc[n+](C)c1.C[C@H](N)C(=O)[O-] [1-ethyl-3-methylimidazolium L-alaninate]
Query: Task for the reader: rank each entry by its viscosity, from the minimum upward. When ranking, write the labels in the order the request describes.
Reply: II, III, I
(II: 30.31 mPa·s, III: 72.02 mPa·s, I: 142.28 mPa·s)

---

settings: 318.15 K; 101.33 kPa; Liquid; Vibrating tube method
QUANTITY NAME: mass density (kg/m3)

> print(dat)
                                   molecule  scale.unit  reported
1  CCn1cc[n+](C)c1.C[C@H](N)C(=O)[O-] [1-ethyl-3-methylimidazolium L-alaninate]       kg/m3    1123.5
2  CCn1cc[n+](C)c1.NCC(=O)[O-] [1-ethyl-3-methylimidazolium ammonioacetate]       kg/m3    1142.2
3  CCn1cc[n+](C)c1.O=C([O-])[C@@H]1CCCN1 [1-ethyl-3-methyl-1H-imidazolium L-prolinate]       kg/m3   1142.64
4  CC[n+]1ccn(C)c1.N[C@@H](CO)C(=O)[O-] [3-ethyl-1-methyl-1H-imidazolium L-serinate]       kg/m3      1182

---

test: refractive index (Na D-line) (dimensionless); conditions: 313.15 K; 101.33 kPa; Liquid; Standard Abbe refractometry
QUANTITY NAME: refractive index

> print(dat)
                                   molecule     quantity.name  reported
1  CCn1cc[n+](C)c1.O=C([O-])[C@@H]1CCCN1 [1-ethyl-3-methyl-1H-imidazolium L-prolinate]  refractive index   1.50924
2  CCn1cc[n+](C)c1.NCC(=O)[O-] [1-ethyl-3-methylimidazolium ammonioacetate]  refractive index   1.49988
3  CC[n+]1ccn(C)c1.N[C@@H](CO)C(=O)[O-] [3-ethyl-1-methyl-1H-imidazolium L-serinate]  refractive index   1.50654
4  CCn1cc[n+](C)c1.C[C@H](N)C(=O)[O-] [1-ethyl-3-methylimidazolium L-alaninate]  refractive index   1.49908

---

experiment: refractive index (Na D-line) (dimensionless); conditions: 298.15 K; 101.33 kPa; Liquid; Standard Abbe refractometry
QUANTITY NAME: refractive index

> print(dat)
                                   compound  reported
1  CCn1cc[n+](C)c1.NCC(=O)[O-] [1-ethyl-3-methylimidazolium ammonioacetate]   1.50473
2  CCn1cc[n+](C)c1.C[C@H](N)C(=O)[O-] [1-ethyl-3-methylimidazolium L-alaninate]    1.5041
3  CCn1cc[n+](C)c1.O=C([O-])[C@@H]1CCCN1 [1-ethyl-3-methyl-1H-imidazolium L-prolinate]   1.51372
4  CC[n+]1ccn(C)c1.N[C@@H](CO)C(=O)[O-] [3-ethyl-1-methyl-1H-imidazolium L-serinate]   1.51069

---

conditions: 323.15 K; 101.33 kPa; Liquid; Vibrating tube method
QUANTITY NAME: mass density (kg/m3)

> print(dat)
                                   compound  reported
1  CC[n+]1ccn(C)c1.N[C@@H](CO)C(=O)[O-] [3-ethyl-1-methyl-1H-imidazolium L-serinate]    1178.9
2  CCn1cc[n+](C)c1.C[C@H](N)C(=O)[O-] [1-ethyl-3-methylimidazolium L-alaninate]    1120.3
3  CCn1cc[n+](C)c1.O=C([O-])[C@@H]1CCCN1 [1-ethyl-3-methyl-1H-imidazolium L-prolinate]    1139.5
4  CCn1cc[n+](C)c1.NCC(=O)[O-] [1-ethyl-3-methylimidazolium ammonioacetate]      1139
